Entry source: ChEMBL document CHEMBL1201862

# Tested on: UACC-62
# experiment-notes: NCI tumour cell line growth inhibition, 48 h
Calls of active or inactive are those of the source. Cut-off read from the data, not from the text of the source: active = GI50 up to about 1.1 µM and inactive = higher.
Outcomes you can answer with include only these: active, inactive

Worked set:
* COc1cc(/C=C/C(=O)c2sc(Nc3ccccc3)nc2C)ccc1O | inactive
* O=C(Nc1ccccc1)Nn1c(-c2cccs2)nc2ccc(I)cc2c1=O | inactive
* COC(=O)C1CC23CCCN4CCC5(c6ccccc6N(C=O)C15CC2)C43 (stereo unspecified) | inactive
* CCCC(O)[C@@H](O)c1ccc2c(c1O)C(=O)c1c(OC)cccc1C2=O (stereo partly specified) | inactive

Assay outcome for `O=C(CC(=O)c1cccc2ccccc12)C(=O)Nc1nccs1` : what was it? inactive

---

# Tested on: UACC-257
# experiment-notes: NCI tumour cell line growth inhibition, 48 h
Calls of active or inactive are those of the source. Rule as the data show it: active = GI50 up to about 1.1 µM and inactive = higher.
property-name: GI50

Example entries begin here.
• COc1cc2c(cc1OC)CC(N=[N+]=[N-])c1cc(OC)c(OC)cc1/C=C\2 (stereo not drawn) = 46 µM (inactive)
• O=C1N/C(=N/N=C\C(O)C(O)C(O)CO)N/C1=C/c1ccccc1 (stereo not drawn) = > 100 µM (inactive)
• CCOC(=O)c1cc2nc3ccccc3c(=O)n2c2ccccc12 = > 10 µM (inactive)
• COC(=O)CCc1c(Cc2ccc[nH]2)[nH]c(C(=O)OCc2ccccc2)c1C = 18.4 µM (inactive)
• O=C1C[C@@H](Sc2ccccc2)C2(OCCO2)C2ON3CCCC[C@H]3[C@H]12 (stereo partly drawn) = 14.2 µM (inactive)
• NC1=NNC2(C(N)=N1)c1ccccc1-c1ccccc12 = > 10 µM (inactive)
• Cc1ncc([N+](=O)[O-])n1CCNC(=O)Cn1ccnc1[N+](=O)[O-] = > 100 µM (inactive)
• Clc1ccccc1C(c1ccccc1)(c1ccccc1)n1ccnc1 [CLOTRIMAZOLE] = 10.8 µM (inactive)

Parameter requested: GI50. Apply to each item below.
1. COc1cc(C2c3cc4c(cc3C(O)C3CCC(=O)N23)OCO4)cc(OC)c1OC (stereo not drawn)
2. Cc1ccc(/N=N/NCCCCN/N=N/c2ccc(C)cc2)cc1

1: > 100 µM (inactive); 2: > 100 µM (inactive)

Parameter requested: GI50. Apply to each item below.
1. CCOC(=O)N[C@H]1CCc2cc(OC)c(OC)c(OC)c2-c2ccc(SC)c(=O)cc21
2. C=C(C)C(O)C(O)c1c(OC)ccc2ccc(=O)oc12 (stereo not drawn)
3. O=C(/C=C/c1ccc(Br)cc1)c1ccc(NCc2nc3ccccc3[nH]2)cc1
4. O=C(Nc1ccccc1)c1ccc(Cl)c([N+](=O)[O-])c1
5. CCCCCCCCCCCCCCCCCCN(C)CC(COC)OP(=O)([O-])OCC[N+](C)(C)C (stereo not drawn)
6. Cc1cn(C2CC(O)C(Cn3nncc3Cn3ncc(=O)[nH]c3=O)O2)c(=O)[nH]c1=O (stereo not drawn)
7. CNS(=O)(=O)NNS(=O)(=O)c1ccc(F)cc1

1: 16.6 µM (inactive); 2: > 100 µM (inactive); 3: 3.81 µM (inactive); 4: 15.4 µM (inactive); 5: 9.08 µM (inactive); 6: > 100 µM (inactive); 7: > 100 µM (inactive)

Parameter requested: GI50. Apply to each item below.
1. O=S(=O)(c1ccccc1)n1c2cc3cccnc3nc2c2cccnc21
2. c1cc2c(cc1NC1=NCCO1)CCCC2
3. NCc1c(C(N)=O)ncn1Cc1ccccc1
4. Nc1ccc(Cc2ccc(N)c(C(=O)O)c2)cc1C(=O)O

1: 54.6 µM (inactive); 2: 3.77 µM (inactive); 3: > 100 µM (inactive); 4: > 100 µM (inactive)

Parameter requested: GI50. Apply to each item below.
1. CC1C=CC(C)C2(O)C(=O)NC(O)C12 (stereo not drawn)
2. [O-][S+]1Nc2cccc(C(F)(F)F)c2S1 (stereo not drawn)

1. > 100 µM (inactive)
2. 32.1 µM (inactive)
